Answer each item with its documented EC50.
# testTarget: hGPR40 (Homo sapiens, UniProt O14842)
# Construct: 3xFLAG
# Sequence (O14842 whole entry): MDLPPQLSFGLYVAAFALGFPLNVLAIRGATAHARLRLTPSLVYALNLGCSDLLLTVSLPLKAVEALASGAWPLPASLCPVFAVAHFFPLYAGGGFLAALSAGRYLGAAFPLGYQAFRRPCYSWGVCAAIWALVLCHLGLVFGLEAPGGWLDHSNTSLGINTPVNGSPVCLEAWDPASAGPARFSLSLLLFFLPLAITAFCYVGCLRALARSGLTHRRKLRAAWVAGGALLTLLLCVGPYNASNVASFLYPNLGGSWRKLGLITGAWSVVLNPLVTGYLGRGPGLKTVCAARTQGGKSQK
# protocolText: FDSS-based intracellular calcium assay (Human GRP40 In Vitro assay)
# recordedConditions: cells expressing GPR40, intracellular Ca2+ response
Where a name gives a salt, the structure may show the parent alone.
Response body: numeric value in µM, unit text excluded.

Given COc1ccc(F)c(-c2ccc(Cc3ccc(N4C[C@H](c5cccnc5)C[C@@H]4CC(=O)O)cc3)c(C)c2)c1 [Example 8, HCl] , respond with its EC50.
0.094

Quick one: give measured EC50 for COc1ccc(F)c(-c2ccc(Cc3ccc(N4C[C@@H](c5ccccc5OC)C[C@@H]4CC(=O)O)cc3)c(C)c2)c1 (single isomer, unassigned) [Example 15, Isomer 2, HCl]
0.061

Consider the molecule COc1ccc(F)c(-c2ccc(Cc3ccc(N4C[C@](OC)(c5ccc(-c6ccccc6)cc5)C[C@@H]4CC(=O)O)cc3)c(C)c2)c1 [Example 6, HCl] and give its recorded EC50.
0.077

Fill in reported EC50 for this entry: COc1ccc(F)c(-c2ccc(Cc3ccc(N4CC(c5cccc(Cl)c5)C[C@@H]4CC(=O)O)cc3)c(C)c2)c1 (single isomer, unassigned) [Example 12, Isomer 1, HCl]
0.16
